Target: Serotonin 3 receptor (5HT3) (Mus musculus) (UniProt Q9JHJ5+P23979)
Sequence (P23979 whole entry, looked up): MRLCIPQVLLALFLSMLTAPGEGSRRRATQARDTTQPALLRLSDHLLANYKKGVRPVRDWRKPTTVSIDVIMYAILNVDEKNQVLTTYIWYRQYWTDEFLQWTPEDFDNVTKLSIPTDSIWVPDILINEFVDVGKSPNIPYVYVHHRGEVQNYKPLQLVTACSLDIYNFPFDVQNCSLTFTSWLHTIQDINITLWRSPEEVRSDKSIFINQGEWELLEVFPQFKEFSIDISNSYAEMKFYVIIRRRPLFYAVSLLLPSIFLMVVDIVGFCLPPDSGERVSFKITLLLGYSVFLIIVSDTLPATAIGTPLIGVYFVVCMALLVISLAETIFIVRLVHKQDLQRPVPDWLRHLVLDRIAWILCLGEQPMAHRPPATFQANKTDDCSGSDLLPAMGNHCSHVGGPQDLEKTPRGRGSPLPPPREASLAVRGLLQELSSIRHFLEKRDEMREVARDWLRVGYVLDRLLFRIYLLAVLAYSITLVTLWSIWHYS
Sequence (Q9JHJ5 whole entry, looked up): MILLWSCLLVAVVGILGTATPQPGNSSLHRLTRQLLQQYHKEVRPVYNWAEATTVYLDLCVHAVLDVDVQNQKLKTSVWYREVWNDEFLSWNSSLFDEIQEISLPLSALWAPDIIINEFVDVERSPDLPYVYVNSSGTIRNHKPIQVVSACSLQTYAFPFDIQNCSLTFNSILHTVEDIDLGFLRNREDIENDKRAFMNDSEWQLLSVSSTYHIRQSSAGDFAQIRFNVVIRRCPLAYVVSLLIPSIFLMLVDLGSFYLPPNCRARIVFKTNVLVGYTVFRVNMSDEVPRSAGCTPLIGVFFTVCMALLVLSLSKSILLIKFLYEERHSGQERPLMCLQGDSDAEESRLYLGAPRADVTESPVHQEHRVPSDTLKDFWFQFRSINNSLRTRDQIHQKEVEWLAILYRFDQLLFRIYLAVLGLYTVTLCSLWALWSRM
Assay: Percent inhibition of 5-hydroxytryptamine 3 receptor after intraperitoneal administration at dose of 10 mpk was determined in mice by Von Bezold-Jarisch reflex assay
Below: a set of entries, each annotated with reported inhibition.
Kindly provide the numeric value in % only, without the unit symbol.

[[record]]
molecule = "COc1cc(N)c(Cl)cc1C(=O)NCC1C2CC3CC1CN(C3)C2 (stereo in doubt; 9d)"
measurement_type = "inhibition"
quantity_unit = "%"
readout_number = 85


Using the record for COc1cc(N)c(Cl)cc1C(=O)NCC1C2CC3CC1CN(C3)C2 (stereo in doubt; 9c) , state its measured inhibition.
88

Write down inhibition measured for item COc1cc(N)c(Cl)cc1C(=O)NC1C2CC3CC1CN(C3)C2 (stereo in doubt; 9a)
85

Identify measured inhibition corresponding to COc1cc(N)c(Cl)cc1C(=O)NC1C2CC3CC1CN(C3)C2 (stereo in doubt; 9b)
86
